# TARGET_SYSTEM: Human immunodeficiency virus type 1 reverse transcriptase (Human immunodeficiency virus 1, UniProt Q72547)
# ASSAY_NOTES: Inhibition of recombinant HIV-1 reverse transcriptase RNA-dependent DNA polymerase activity using poly(rA)/oligo(dT)16 as template/primer preincubated for 5 to 10 mins followed by template/primer addition and measured after 16 hrs by colorimetric assay
MEASURE: EC50 (nM)
Respond with the bare value in nM.

COc1ccc2c3c(ccc2c1)OCN(c1nc(-c2ccc(F)cc2)cs1)C3 : 192
Fc1ccc(-c2csc(N3COc4ccc5ccccc5c4C3)n2)cc1 : 210
C[C@H]1[C@H](O)c2c(c3c(c4c(-c5ccccc5)cc(=O)oc24)OC(C)(C)C=C3)O[C@@H]1C : 225
FC(F)(F)c1ccc(-c2csc(N3COc4ccc5ccccc5c4C3)n2)cc1 : 79

We next turn to a different molecule, shown below.
// query Entry COc1ccc2c3c(ccc2c1)OCN(c1nc(-c2ccc(C(F)(F)F)cc2)cs1)C3 has what EC50?
// result 66
